target-system: CDK10/Cyclin L2 (Homo sapiens, UniProt Q15131)
Sequence (Q15131 whole entry): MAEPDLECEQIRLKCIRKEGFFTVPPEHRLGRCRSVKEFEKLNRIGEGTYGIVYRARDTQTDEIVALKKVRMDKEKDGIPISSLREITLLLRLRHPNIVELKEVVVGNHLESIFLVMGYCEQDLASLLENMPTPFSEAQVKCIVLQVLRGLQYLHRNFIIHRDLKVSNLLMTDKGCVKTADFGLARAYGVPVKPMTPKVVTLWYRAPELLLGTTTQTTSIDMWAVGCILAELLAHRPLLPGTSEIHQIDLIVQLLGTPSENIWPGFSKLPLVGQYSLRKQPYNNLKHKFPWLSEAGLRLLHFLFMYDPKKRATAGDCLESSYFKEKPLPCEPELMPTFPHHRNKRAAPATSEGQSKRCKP
assay-overview: NanoBRET live-cell target engagement, CDK10-NanoLuc/Cyclin L2 in HEK-293
test-context: read-out: CDK10/L2 Inhibition at 10µM (%), 10µM; average of experiments
So basically, the class depends on measured inhibition at 10 µM, and the ranges are bucket A = under 10%, bucket B = from 10% up to 50%, bucket C = 50% and over

Example cases with answers are listed next.
[[record]]
item_smiles = "CC[C@H](CO)Nc1nc(NCc2ccccc2)c2ncn(C(C)C)c2n1"
class_label = "bucket A"

[[record]]
item_smiles = "CC(C)[C@H](CO)Nc1nc(Nc2ccc(C(=O)O)c(Cl)c2)c2ncn(C(C)C)c2n1"
class_label = "bucket A"

[[record]]
item_smiles = "CN(C)C(=O)c1cc2cnc(Nc3ccc(N4CCNCC4)cn3)nc2n1C1CCCC1"
class_label = "bucket A"


**Query** GET /class?item= CC(=O)c1c(C)c2cnc(Nc3ccc(N4CCNCC4)cn3)nc2n(C2CCCC2)c1=O
**Result** bucket B

**Query** GET /class?item= COCCN1CCN(Cc2ccc(-c3n[nH]c4c3C(=O)c3c(NC(=O)NN5CCOCC5)cccc3-4)cc2)CC1
**Result** bucket C

**Query** GET /class?item= CC(C)CC(=O)Nc1[nH]nc2c1CN(C(=O)C1CCN(C)CC1)C2(C)C
**Result** bucket B

**Query** GET /class?item= CN1CCN(c2ccc(Nc3ncc4cc5n(c4n3)C3(CCCCC3)CNC5=O)nc2)CC1
**Result** bucket B

**Query** GET /class?item= CN1C/C=C/CCOc2cccc(c2)-c2ccnc(n2)Nc2cccc(c2)C1
**Result** bucket C

* * *

target-system: CDK15/Cyclin Y (Homo sapiens, UniProt Q96Q40)
Sequence (Q96Q40 whole entry): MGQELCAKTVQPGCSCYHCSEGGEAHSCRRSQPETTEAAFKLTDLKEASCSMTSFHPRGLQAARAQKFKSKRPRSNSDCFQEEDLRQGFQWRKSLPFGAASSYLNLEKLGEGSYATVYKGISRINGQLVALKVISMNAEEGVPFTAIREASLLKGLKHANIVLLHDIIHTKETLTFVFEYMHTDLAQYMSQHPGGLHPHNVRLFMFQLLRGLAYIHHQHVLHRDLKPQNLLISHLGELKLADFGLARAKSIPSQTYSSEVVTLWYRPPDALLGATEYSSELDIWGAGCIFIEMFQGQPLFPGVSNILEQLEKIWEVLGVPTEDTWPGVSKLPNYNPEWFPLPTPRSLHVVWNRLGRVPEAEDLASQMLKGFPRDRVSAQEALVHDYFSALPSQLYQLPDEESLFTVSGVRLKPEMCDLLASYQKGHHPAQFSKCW
Sequence (Q8ND76 whole entry partner): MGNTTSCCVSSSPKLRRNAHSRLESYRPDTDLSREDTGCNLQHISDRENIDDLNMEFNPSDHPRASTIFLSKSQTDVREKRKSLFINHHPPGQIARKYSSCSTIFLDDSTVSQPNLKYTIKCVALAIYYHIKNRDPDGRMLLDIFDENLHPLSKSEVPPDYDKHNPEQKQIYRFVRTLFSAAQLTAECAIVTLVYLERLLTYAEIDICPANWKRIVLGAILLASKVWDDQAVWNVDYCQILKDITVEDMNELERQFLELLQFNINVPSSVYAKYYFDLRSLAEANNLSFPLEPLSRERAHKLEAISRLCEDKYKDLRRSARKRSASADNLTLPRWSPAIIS
assay-overview: NanoBRET live-cell target engagement, NanoLuc-CDK15/Cyclin Y in HEK-293
Type: binding
test-context: CDK15/Y; 10µM
value-kind: Inhibition at 10µM (%) Replicate 1
Give a bare numeral; the unit % is implied.

[[record]]
compound = "CNC1CCN(C(=O)c2ccc(Nc3ncc(F)c(-c4cnc(C)n4C(C)C)n3)cc2)C1 (stereo not shown) [AZD5597]"
target_system = "CDK15/Cyclin Y (Homo sapiens, UniProt Q96Q40)"
uom = "%"
reported_measurement = 93.9

[[record]]
compound = "O=C(Nc1c[nH]nc1-c1ccccn1)c1nn(C2CCNCC2)cc1Cl [BDP5290]"
target_system = "CDK15/Cyclin Y (Homo sapiens, UniProt Q96Q40)"
uom = "%"
reported_measurement = 8.0

[[record]]
compound = "CCC(CO)Nc1nc(Nc2cccc(-c3ccccn3)c2)c2ncn(C(C)C)c2n1.Cl.O [(R) - DRF053]"
target_system = "CDK15/Cyclin Y (Homo sapiens, UniProt Q96Q40)"
uom = "%"
reported_measurement = 25.0


# compound CC(C)c1cnn2c(NCc3ccccc3)cc(N[C@@H](CO)[C@H](O)CO)nc12 [BS-194] ; its Inhibition at 10µM (%) Replicate 1 = 81.4

* * *

Reported Inhibition at 10µM (%) values for a set of molecules
target-system: CDK3/Cyclin E1 (Homo sapiens)
Sequence (Q00526 whole entry): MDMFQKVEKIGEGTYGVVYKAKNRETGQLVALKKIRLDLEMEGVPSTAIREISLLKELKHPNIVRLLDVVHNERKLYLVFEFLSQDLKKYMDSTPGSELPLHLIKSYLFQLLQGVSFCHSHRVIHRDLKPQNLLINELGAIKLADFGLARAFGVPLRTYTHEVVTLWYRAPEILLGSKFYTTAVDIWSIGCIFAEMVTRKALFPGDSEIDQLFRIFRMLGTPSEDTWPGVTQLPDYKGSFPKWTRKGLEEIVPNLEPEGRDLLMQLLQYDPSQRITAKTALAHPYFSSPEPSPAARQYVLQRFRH
Sequence (P24864 whole entry partner): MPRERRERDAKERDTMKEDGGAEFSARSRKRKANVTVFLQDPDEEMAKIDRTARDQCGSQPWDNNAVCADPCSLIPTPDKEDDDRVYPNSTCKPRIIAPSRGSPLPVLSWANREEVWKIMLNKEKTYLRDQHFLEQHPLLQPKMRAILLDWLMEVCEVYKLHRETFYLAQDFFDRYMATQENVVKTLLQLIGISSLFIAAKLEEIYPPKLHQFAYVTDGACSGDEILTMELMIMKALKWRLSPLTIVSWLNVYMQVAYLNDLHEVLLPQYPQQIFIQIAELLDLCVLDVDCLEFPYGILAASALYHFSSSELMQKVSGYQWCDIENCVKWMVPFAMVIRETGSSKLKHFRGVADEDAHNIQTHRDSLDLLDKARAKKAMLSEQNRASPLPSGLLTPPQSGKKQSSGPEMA
assay-overview: NanoBRET live-cell target engagement, CDK3-NanoLuc/Cyclin E1 in HEK-293
Format: binding
test-context: CDK3/E1; average
Give a bare numeral; the unit % is implied.

A selection of reference data follows.
[[record]]
molecule = "CCn1cnc2c(Nc3cccc(Cl)c3)nc(N[C@@H]3CCCC[C@@H]3N)nc21 [CGP74514A]"
value_kind = "Inhibition at 10µM (%)"
reported_measurement = 92.7

[[record]]
molecule = "CNc1nc(C)c(-c2nc(Nc3cccc(S(N)(=O)=O)c3)ncc2F)s1"
value_kind = "Inhibition at 10µM (%)"
reported_measurement = 97.0

[[record]]
molecule = "CC(C)c1c2cc(-c3ccnc(N[C@H]4CC[C@H](NC5CCOCC5)CC4)n3)ccc2nn1C"
value_kind = "Inhibition at 10µM (%)"
reported_measurement = 89.1

[[record]]
molecule = "CC(C)c1cnn2c(NCc3ccccc3-n3cccn3)nc(OC3CCCNC3)nc12 (stereo not drawn)"
value_kind = "Inhibition at 10µM (%)"
reported_measurement = 89.3

[[record]]
molecule = "CS(=O)(=O)N1CCC(NC(=O)c2[nH]ncc2NC(=O)c2c(Cl)cccc2Cl)CC1"
value_kind = "Inhibition at 10µM (%)"
reported_measurement = 97.9


Item: CN1CCC(c2c(O)cc(O)c3c(=O)cc(-c4ccccc4Cl)oc23)C1CO (stereo not drawn) | System: CDK3/Cyclin E1 (Homo sapiens) | Inhibition at 10µM (%): 51.8

Value source: paper PMC7265341
